Tested on: WPMY1-TUBA1B-RELA
Assay: phenotypically active (imaging signature differs from DMSO and reproducible) at any of 0.3-9 uM (binary (1 = active, 0 = inactive)); higher = active
Settings: treatment time: 24 h
Classes to choose from: 1.0 for active, 0.0 for inactive

For orientation, consider the following solved cases.
>  <molecule>
CN1CCc2cc3c(cc2[C@H]1[C@@H]1OC(=O)c2c1ccc1c2OCO1)OCO3

>  <label.value>
0.0

$$$$
>  <molecule>
CC(C)C[C@H](CN)CC(=O)O

>  <label.value>
0.0

$$$$
>  <molecule>
Cc1cc2c(C(C)C)c(O)c(O)c(C=O)c2c(O)c1-c1c(C)cc2c(C(C)C)c(O)c(O)c(C=O)c2c1O

>  <label.value>
1.0

$$$$
>  <molecule>
C[C@H]1CCC2(NC1)O[C@H]1C[C@H]3[C@@H]4CC[C@H]5C[C@@H](O[C@@H]6O[C@H](CO)[C@H](O[C@@H]7O[C@H](CO)[C@@H](O)[C@H](O[C@@H]8OC[C@@H](O)[C@H](O)[C@H]8O)[C@H]7O[C@@H]7O[C@H](CO)[C@@H](O)[C@H](O)[C@H]7O)[C@H](O)[C@H]6O)CC[C@]5(C)[C@H]4CC[C@]3(C)[C@H]1[C@@H]2C (stereo partly specified)

>  <label.value>
0.0

$$$$

Lookup: I'd appreciate the recorded outcome for COc1c2c(cc3c1OCO3)CC[N+](C)=C2 [Cotarnine chloride] from this test.
Found: 0.0

Lookup: I'd appreciate the recorded outcome for C[C@@H]1C[C@@H]([C@H](O)CC2CC(=O)NC(=O)C2)C(=O)[C@@H](C)C1 [Cycloheximide] from this test.
Found: 1.0

Data origin: the supplement of paper PMC7411054
